Test system: HEK293 cells
protocol: FACS cell binding selectivity
Format: cell-based
protocol.conditions: directly labeled (ALEXA FLUOR 488) antibodies, 10 μg/ml
assay.metric: Parental HEK293 MFI
Give a plain numeric answer without units written out.

Reported Parental HEK293 MFI ( H1H1912N: human IgG1 Fc anti-EGFRvIII antibody with variable domains 1912; HCVR/LCVR SEQ ID NOs 66/74 (antibody, V domains shown, human IgG1 Fc) VH: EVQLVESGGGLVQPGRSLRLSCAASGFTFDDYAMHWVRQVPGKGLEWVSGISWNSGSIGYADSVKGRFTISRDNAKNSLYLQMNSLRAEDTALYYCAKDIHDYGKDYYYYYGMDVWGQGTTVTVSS VL: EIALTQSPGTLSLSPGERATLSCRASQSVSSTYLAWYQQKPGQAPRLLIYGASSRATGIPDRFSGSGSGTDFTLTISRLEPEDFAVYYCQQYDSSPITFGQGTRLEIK ) = 3727

These entries and their values trace back to patent US11608380B2.
